molecular target: T1, human CD47 (human, UniProt Q08722 19-323); experiment: flow cytometry on RBCs, antibody 10 ng/ml
T1 construct: whole, on cells; also called CD47 on human red blood cells
T1 sequence (Q08722 19-323): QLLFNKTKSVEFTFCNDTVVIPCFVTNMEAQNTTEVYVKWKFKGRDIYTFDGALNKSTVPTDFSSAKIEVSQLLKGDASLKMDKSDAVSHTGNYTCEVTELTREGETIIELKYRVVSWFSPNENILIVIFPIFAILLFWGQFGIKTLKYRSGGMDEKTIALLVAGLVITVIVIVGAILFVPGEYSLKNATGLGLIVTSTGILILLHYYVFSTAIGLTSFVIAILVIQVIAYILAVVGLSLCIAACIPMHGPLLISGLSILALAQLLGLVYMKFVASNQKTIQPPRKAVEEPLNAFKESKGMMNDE
mean fluorescence relative to chimeric antibody values for the binders below.

Examples with answers:
mean fluorescence relative to chimeric antibody measured on pVxK7b-037-hum01-LC/pVxK7b-037-hum01-HC (antibody, human IgG1, V domains shown, Full-length human IgG1/kappa in CHO supernatant; Variable entries end within framework 4 (...FGQG / ...WGQG); also called Clone 1) VH: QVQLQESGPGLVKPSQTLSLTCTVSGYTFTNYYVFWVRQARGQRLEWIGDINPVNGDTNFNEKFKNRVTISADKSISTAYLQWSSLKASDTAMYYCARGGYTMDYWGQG VL: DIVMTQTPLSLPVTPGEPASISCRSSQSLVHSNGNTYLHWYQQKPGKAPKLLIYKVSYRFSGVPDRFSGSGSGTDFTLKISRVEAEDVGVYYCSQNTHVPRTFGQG = 1.1 fold of chimera

mean fluorescence relative to chimeric antibody measured on pVxK7b-037-hum22-LC/pVxK7b-037-hum22-HC (antibody, human IgG1, V domains shown, Full-length human IgG1/kappa in CHO supernatant; Variable entries end within framework 4 (...FGQG / ...WGQG); also called Clone 22) VH: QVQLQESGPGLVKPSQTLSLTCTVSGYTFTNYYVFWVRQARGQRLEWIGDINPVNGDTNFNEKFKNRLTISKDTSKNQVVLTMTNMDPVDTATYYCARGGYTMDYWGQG VL: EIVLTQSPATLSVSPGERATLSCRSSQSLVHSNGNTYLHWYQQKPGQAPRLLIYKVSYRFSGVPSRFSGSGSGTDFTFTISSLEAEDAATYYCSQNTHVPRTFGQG = 1.1 fold of chimera

More entries:
mean fluorescence relative to chimeric antibody measured on pVxK7b-037-hum06-LC/pVxK7b-037-hum06-HC (antibody, human IgG1, V domains shown, Full-length human IgG1/kappa in CHO supernatant; Variable entries end within framework 4 (...FGQG / ...WGQG); also called Clone 6) VH: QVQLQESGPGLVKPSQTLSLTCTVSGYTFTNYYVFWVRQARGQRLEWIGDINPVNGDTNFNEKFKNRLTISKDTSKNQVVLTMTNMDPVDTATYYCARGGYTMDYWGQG VL: DIQMTQSPSSLSASVGDRVTITCRSSQSLVHSNGNTYLHWYLQKPGQSPQLLIYKVSYRFSGIPARFSGSGSGTEFTLTISSLQSEDFAVYYCSQNTHVPRTFGQG = 0.9 fold of chimera
